In this section we review reported Beta 2 Log KD values for a set of compounds.
- TESTED ON: human beta2-adrenoceptor (Homo sapiens, UniProt P07550)
- Construct: expressed in transfected cells; host or cells: CHO cells
- Sequence (P07550 whole entry): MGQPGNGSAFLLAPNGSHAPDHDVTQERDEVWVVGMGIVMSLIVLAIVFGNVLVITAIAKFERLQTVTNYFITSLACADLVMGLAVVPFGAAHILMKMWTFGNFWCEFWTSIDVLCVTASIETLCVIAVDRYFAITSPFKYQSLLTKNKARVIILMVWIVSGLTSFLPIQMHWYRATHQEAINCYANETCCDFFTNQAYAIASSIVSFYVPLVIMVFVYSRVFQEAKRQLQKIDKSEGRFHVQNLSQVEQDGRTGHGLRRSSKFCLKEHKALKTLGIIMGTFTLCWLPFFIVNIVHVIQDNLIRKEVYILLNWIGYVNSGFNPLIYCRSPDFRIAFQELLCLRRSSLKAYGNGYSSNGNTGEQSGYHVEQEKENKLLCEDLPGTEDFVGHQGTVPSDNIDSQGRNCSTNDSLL
- EXPERIMENT DESCRIPTION: 3H-CGP12177 whole-cell binding, beta2
- CONDITION SUMMARY: 3H-CGP 12177 whole cell binding, CHO cells expressing human beta2-adrenoceptor; logarithmic value
Output spec: single numeric token, no unit.

| SMILES | OBSERVED |
| --- | --- |
| O=C1NCc2cc(OCCNC[C@H](O)COc3ccc(CCCOC4CC4)cc3)ccc21 | −6.52 |
| CC(=O)Nc1ccc(OCCNC[C@H](O)COc2ccc(CCCOCC3CC3)cc2)cc1 | −6.53 |

Challenge: For the compound O=C1NCc2cc(OCCNC[C@H](O)COc3ccc4c(c3)OC[C@@H](COc3c(F)cccc3F)O4)ccc21 , what Beta 2 Log KD is on record?
Response given: −5.20

Challenge: // Beta 2 Log KD lookup, key: NC(=O)c1ccc(OCCNC[C@H](O)COc2ccc(CCCOC3CC3)cc2)cc1
Response given: −6.10

Challenge: For the compound shown here, NC(=O)c1ccc(OCCNC[C@H](O)COc2ccc(CCOCC3CC3)cc2)cc1 , give the reported Beta 2 Log KD.
Response given: −6.71

Challenge: Any idea what its Beta 2 Log KD is? The compound is O=C1NCc2cc(OCCNC[C@H](O)COc3ccc4c(c3)OC[C@@H](COc3ccccc3F)O4)ccc21
Response given: −4.98

====

Items are presented alongside their recorded melting point.

Some molecules with known melting point results, for comparison:
| SMILES | OBSERVED |
| --- | --- |
| O=C1NCc2cc(OCCNC[C@H](O)COc3ccc4c(c3)OC[C@@H](COc3ccc(OC(F)(F)F)cc3)O4)ccc21 | 188 to 189 °C |
| CC1(C)COc2cc(OC[C@@H](O)CNCCOc3ccc(C(N)=O)cc3)ccc2O1 | 101 to 103 °C |
| NC(=O)c1ccc(OCCNC[C@H](O)COc2ccc(CCCOC3CCCC3)cc2)cc1 | 120 to 122 °C |

Challenge: Please look up its melting point: NC(=O)c1ccc(OCCNC[C@H](O)COc2ccc3cc(COCC4CC4)ccc3c2)cc1
Response given: 148 to 150 °C

Challenge: Data request, read-out melting point, for O=C1NCc2cc(OCCNC[C@H](O)COc3ccc(CCCN4CCC(F)(F)CC4)cc3)ccc21
Response given: 132 to 133 °C

Challenge: Given CN(C)C(=O)c1ccc(OCCNC[C@H](O)COc2ccc(OCCOC3CCCC3)cc2)cc1 , state its recorded melting point.
Response given: 73 to 75 °C

Challenge: # input molecule: NC(=O)c1ccc(OCCNC[C@H](O)COc2ccc(CCCOCC3CC3)cc2)cc1 ; wanted: its melting point
Response given: 132 to 135 °C

Challenge: Please look up its melting point: O=c1[nH]c2ccc(OCCNC[C@H](O)COc3ccc(CCCOCC4CC4)cc3)cc2[nH]1
Response given: 183 to 185 °C

====

- TESTED ON: human beta1-adrenoceptor (Homo sapiens, UniProt P08588)
- Construct: expressed in transfected cells; host or cells: CHO cells
- Sequence (P08588 whole entry): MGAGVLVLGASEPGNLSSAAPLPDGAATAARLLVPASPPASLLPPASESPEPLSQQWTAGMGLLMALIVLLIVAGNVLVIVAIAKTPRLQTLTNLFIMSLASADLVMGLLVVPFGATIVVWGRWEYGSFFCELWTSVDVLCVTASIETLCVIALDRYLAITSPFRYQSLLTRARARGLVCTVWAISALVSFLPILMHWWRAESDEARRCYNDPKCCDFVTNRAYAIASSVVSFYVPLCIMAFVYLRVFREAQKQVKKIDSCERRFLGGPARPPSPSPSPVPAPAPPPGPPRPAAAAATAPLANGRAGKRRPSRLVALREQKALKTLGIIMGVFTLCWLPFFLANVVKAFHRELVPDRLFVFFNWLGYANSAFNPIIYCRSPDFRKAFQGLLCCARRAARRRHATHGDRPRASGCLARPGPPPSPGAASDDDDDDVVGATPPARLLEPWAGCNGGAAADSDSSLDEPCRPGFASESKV
- EXPERIMENT DESCRIPTION: 3H-CGP12177 whole-cell binding, beta1
- CONDITION SUMMARY: difference of Log KD beta1 and beta2; 1 = 10-fold, 2 = 100-fold, 3 = 1000-fold selectivity
ASSAY READOUT: Beta 1-Beta 2 Log KD (selectivity)

Example entries begin here.
| COMPOUND | OBSERVED |
| --- | --- |
| Cc1ccccc1OC[C@@H]1COc2cc(OC[C@@H](O)CNCCOc3ccc4c(c3)CNC4=O)ccc2O1 [Example 39] | 2.91 |
| O=C1NCc2cc(OCCNC[C@H](O)COc3ccc4cc(OCC5CC5)ccc4c3)ccc21 [Example 29] | <3.10 |

Challenge: Need Beta 1-Beta 2 Log KD (selectivity) of NC(=O)c1ccc(OCCNC[C@H](O)COc2ccc3c(c2)OC[C@@H](COC2CCCC2)O3)cc1 [Example 16] , thanks.
Response given: 2.91

====

Known Kd of a selection of molecules
- TESTED ON: human beta1-adrenoceptor (Homo sapiens)
- Construct: expressed in transfected cells; host or cells: CHO cells
- EXPERIMENT DESCRIPTION: 3H-CGP12177 whole-cell binding, beta1
- CONDITION SUMMARY: 3H-CGP 12177 whole cell binding, CHO cells expressing human beta1-adrenoceptor; logarithmic value; read-out: Beta 1 Log KD (converted)
Form entry: value (nM) — number only.

Challenge: # returns recorded Kd (system: human beta1-adrenoceptor (Homo sapiens)) for NC(=O)c1ccc(OCCNC[C@H](O)COc2ccc3c(c2)OC[C@@H](COC2CCCC2)O3)cc1
Response given: 6.17

Challenge: Hi! What's the reported Kd for NC(=O)c1ccc(OCCNC[C@H](O)COc2ccc3c(c2)OC[C@@H](COCC2CC2)O3)cc1 on human beta1-adrenoceptor (Homo sapiens)?
Response given: 23.4

Challenge: Notebook entry, human beta1-adrenoceptor (Homo sapiens) assay: Kd of O[C@@H](CNCCOc1ccc2nccnc2c1)COc1ccc(CCCOCC2CC2)cc1 = ?
Response given: 2.75

Challenge: Missing value: Kd, human beta1-adrenoceptor (Homo sapiens), entry CC(=O)Nc1ccc(OCCNC[C@H](O)COc2ccc3c(c2)OC[C@@H](COCC2CC2)O3)cc1 . Fill in?
Response given: 7.59

Data origin: patent US20140094493A1
